Where do these numbers come from? They come from paper PMC7970697.

- PROTOCOL: Pharmacokinetics of probe substrates in rats with or without poziotinib pre-treatment
- MEASUREMENT SETUP: male, Sprague-Dawley, rat, in vivo, po, Vz/F, Treated group: oral probe cocktail (10 mg/kg; tolbutamide 1 mg/kg) after 7 days oral poziotinib 5 mg/kg, rats, n = 6
EXPERIMENTAL ENDPOINT: Vd/F (L/kg)
Give the number; L/kg is assumed, so skip it.

Entry `COc1ccc2c(c1)[C@]13CCCC[C@@H]1[C@H](C2)N(C)CC3` needs its Vd/F filled in; supply it.
75.5

* * *

- PROTOCOL: Pharmacokinetics of probe substrates in rats with or without poziotinib pre-treatment
- MEASUREMENT SETUP: male, Sprague-Dawley, rat, in vivo, po, 10 mg/kg, CLz/F, Control group: oral probe cocktail only (10 mg/kg; tolbutamide 1 mg/kg), rats, n = 6
EXPERIMENTAL ENDPOINT: CL/F (mL/min/kg)
Give the number; mL/min/kg is assumed, so skip it.

Entry Cc1ncc2n1-c1ccc(Cl)cc1C(c1ccccc1F)=NC2 [Midazolam] needs its CL/F filled in; supply it.
128

* * *

- PROTOCOL: Pharmacokinetics of probe substrates in rats with or without poziotinib pre-treatment
- MEASUREMENT SETUP: male, Sprague-Dawley, rat, in vivo, po, 10 mg/kg, Tmax, Control group: oral probe cocktail only (10 mg/kg; tolbutamide 1 mg/kg), rats, n = 6
EXPERIMENTAL ENDPOINT: Tmax (min)
Give the number; min is assumed, so skip it.

Entry `Cc1ncc2n1-c1ccc(Cl)cc1C(c1ccccc1F)=NC2` needs its Tmax filled in; supply it.
19.8

* * *

- PROTOCOL: Pharmacokinetics of probe substrates in rats with or without poziotinib pre-treatment
- MEASUREMENT SETUP: male, Sprague-Dawley, rat, plasma, po, 10 mg/kg
Below: a set of entries, each annotated with reported AUC(0-t).
Give the number; ng·h/mL is assumed, so skip it.

Entry CC(NC(C)(C)C)C(=O)c1cccc(Cl)c1 (centres unmarked) needs its AUC(0-t) filled in; supply it.
565

Entry `CCOc1ccc(NC(C)=O)cc1` needs its AUC(0-t) filled in; supply it.
2770

* * *

- PROTOCOL: in vivo
- MEASUREMENT SETUP: male, Sprague-Dawley, rat, in vivo, po, Tmax
EXPERIMENTAL ENDPOINT: Tmax (h)
Give the number; h is assumed, so skip it.

Entry CCCCNC(=O)NS(=O)(=O)c1ccc(C)cc1 [Tolbutamide] needs its Tmax filled in; supply it.
2.33

* * *

- PROTOCOL: Pharmacokinetics of probe substrates in rats with or without poziotinib pre-treatment
- MEASUREMENT SETUP: male, Sprague-Dawley, rat, in vivo, po, 10 mg/kg, Vz/F, Treated group: oral probe cocktail (10 mg/kg; tolbutamide 1 mg/kg) after 7 days oral poziotinib 5 mg/kg, rats, n = 6
EXPERIMENTAL ENDPOINT: Vd/F (L/kg)
Give the number; L/kg is assumed, so skip it.

Entry `Cc1ncc2n1-c1ccc(Cl)cc1C(c1ccccc1F)=NC2` needs its Vd/F filled in; supply it.
32.8

* * *

- PROTOCOL: Pharmacokinetics of probe substrates in rats with or without poziotinib pre-treatment
- MEASUREMENT SETUP: male, Sprague-Dawley, rat, in vivo, po, Cmax, Control group: oral probe cocktail only (10 mg/kg; tolbutamide 1 mg/kg), rats, n = 6
EXPERIMENTAL ENDPOINT: Cmax (ng/mL)
Give the number; ng/mL is assumed, so skip it.

Entry `COc1ccc2c(c1)[C@]13CCCC[C@@H]1[C@H](C2)N(C)CC3` needs its Cmax filled in; supply it.
152
